Target: Neu5Ac(a2-3)Gal6S(b1-4)[Fuc(a1-3)]GlcNAc
Experiment: glycan array binding signal (z-score within array); higher = stronger binding
Details: glycan notation: IUPAC condensed, linker removed
About 410 targets per protein were measured; listed, in parts, are those with the strongest signals and a random draw of the rest.
property.measured: glycan array binding signal (z-score)
Respond using a number only.

QUERY: For CBM13 2a (Mycobacterium tuberculosum), P64849 (protein) DGPVQLKSRLGDVCLDAPSGSWFSPLVINPCNGTDFQRWNLTDDRQVESVAFPGECVNIGNALWARLQPCVNWISQHWTVQPDGLVKSDLDACLTVLGGPDPGTWVSTRWCDPNAPDQQWDSVPLEHHHHHH , what is its reported glycan array binding signal (z-score)?
RESULT: -0.271

QUERY: For FliC (Clostridium difficile) (protein) MRVNTNVSALIANNQMGRNVNGQSKSMEKLSSGVRIKRAADDAAGLAISEKMRAQIKGLDQAGRNVQDGISVVQTAEGSLEETGNILQRMRTLSLQSANEINNTEEREKIADELTQLKDEIERISSSTEFNGKKLLDGTSSTIRLQVGASYGTNVSGTSNNNNEIKIQLVNTASIMASAGITTASIGSMKAGGTTGTDAAKTMVSSLDAALKSLNSSRAKLGAQQNRLESTQNNLNNTLENVTAAESRIRDTDVASEMVNLSKMNILVQASQSMLAQANQQPQGVLQLLG , what is its reported glycan array binding signal (z-score)?
RESULT: -0.433

QUERY: For Ecp6 (Cladosporium fulvum), B3VBK9 (protein) MQSMILFAAALMGAAVNGFVLPRTDDPDCETKATDCGSTSNIKYTVVKGDTLTSIAKKFKSGICNIVSVNKLANPNLIELGATLIIPENCSNPDNKSCVSTPAEPTETCVPGLPGSYTIVSGDTLTNISQDFNITLDSLIAANTQIENPDAIDVGQIITVPVCPSSQCEAVGTYNIVAGDLFVDLAATYHTTIGQIKALNNNVNPSKLKVGQQIILPQDCKNVTTAVA , what is its reported glycan array binding signal (z-score)?
RESULT: -0.073
